target: full-length beta-Catenin (Uniprot ID P35222) (Homo sapiens (Human)) (UniProt P35222); assay: fluorescence polarization competition vs 5FAM-TCF4(10-53) on full-length beta-catenin
pIC50: −log10 of the molar value. Starred links: 1 amine or outer side, 2 acyl side, 3 side chain; linkers in the order of their positions; H or OH if unused. Positions of bridges follow the written chain, without caps; N, C: chain ends. Non-standard residues stand in square brackets, D forms with d. Primed or numbered codes have the meaning given here. B5(30) = 2-amino-2-(pent-4-en-1-yl)hept-6-enoic acid (2,2-bis(4-pentenyl)glycine, stitching residue), C=CCCCC(CCCC=C)(N[*:1])C(=O)[*:2]; B5(4) = 2,2-bis(4-pentenyl)glycine = 2-amino-2-(pent-4-en-1-yl)hept-6-enoic acid (stitching residue), C=CCCCC(CCCC=C)(N[*:1])C(=O)[*:2]; TfeGA = (S)-2-amino-3-((carboxymethyl)(2,2,2-trifluoroethyl)amino)propanoic acid, O=C([C@H](CN(CC(=O)[*:3])CC(F)(F)F)N[*:1])[*:2]; PyrS2 = (S)-3-amino-1-((pent-4-en-1-yloxy)carbonyl)pyrrolidine-3-carboxylic acid, C=CCCCOC(=O)N1CC[C@@](N[*:1])(C(=O)[*:2])C1; B5 = 2-amino-2-(pent-4-en-1-yl)hept-6-enoic acid, C=CCCCC(CCCC=C)(N[*:1])C(=O)[*:2]; Phe(4-COOH) = N[C@@H](Cc1ccc(C(=O)O)cc1)C(=O)O; Bta = N[C@@H](Cc1csc2ccccc12)C(=O)O; αAllylPro = C=CC[C@@]1(C(=O)O)CCCN1; tBuAla = CC(C)(C)C[C@H](N)C(=O)O; 3Thi = N[C@@H](Cc1ccsc1)C(=O)O; S8 = C=CCCCCCC[C@](C)(N)C(=O)O; hSer = N[C@@H](CCO)C(=O)O
Classify by measured pIC50: y if it is equal to or exceeds 6, n if it is smaller.

*Q* Kindly determine if pIC50 recorded for Ac-[αAllylPro]D[tBuAla][B5]D[TfeGA]AAF[hSer][PyrS2][3Thi][Bta]S-NH2 (staple 1-4, 4-11; also: earlier-eluting staple isomer composition) [I-958] is above or exactly 6.
*A* y

*Q* Also Ac-[αAllylPro]DA[B5(4)]DDAAFV[S8][Phe(4-COOH)][Bta]Q-NH2 (staple 1-4, 4-11; also: later-eluting staple isomer) [I-340] ?
*A* n

*Q* Also Ac-[αAllylPro]D[tBuAla][B5(30)]NTAAFR[PyrS2][3Thi][Bta]Q-NH2 (staple 1-4, 4-11; also: earlier-eluting HPLC isomer) [I-1882] ?
*A* y

Source of measurements: patent US20240116985A1
